Biological target: wild type AR (Homo sapiens, UniProt P10275)
Sequence (P10275 whole entry Q868H, form open): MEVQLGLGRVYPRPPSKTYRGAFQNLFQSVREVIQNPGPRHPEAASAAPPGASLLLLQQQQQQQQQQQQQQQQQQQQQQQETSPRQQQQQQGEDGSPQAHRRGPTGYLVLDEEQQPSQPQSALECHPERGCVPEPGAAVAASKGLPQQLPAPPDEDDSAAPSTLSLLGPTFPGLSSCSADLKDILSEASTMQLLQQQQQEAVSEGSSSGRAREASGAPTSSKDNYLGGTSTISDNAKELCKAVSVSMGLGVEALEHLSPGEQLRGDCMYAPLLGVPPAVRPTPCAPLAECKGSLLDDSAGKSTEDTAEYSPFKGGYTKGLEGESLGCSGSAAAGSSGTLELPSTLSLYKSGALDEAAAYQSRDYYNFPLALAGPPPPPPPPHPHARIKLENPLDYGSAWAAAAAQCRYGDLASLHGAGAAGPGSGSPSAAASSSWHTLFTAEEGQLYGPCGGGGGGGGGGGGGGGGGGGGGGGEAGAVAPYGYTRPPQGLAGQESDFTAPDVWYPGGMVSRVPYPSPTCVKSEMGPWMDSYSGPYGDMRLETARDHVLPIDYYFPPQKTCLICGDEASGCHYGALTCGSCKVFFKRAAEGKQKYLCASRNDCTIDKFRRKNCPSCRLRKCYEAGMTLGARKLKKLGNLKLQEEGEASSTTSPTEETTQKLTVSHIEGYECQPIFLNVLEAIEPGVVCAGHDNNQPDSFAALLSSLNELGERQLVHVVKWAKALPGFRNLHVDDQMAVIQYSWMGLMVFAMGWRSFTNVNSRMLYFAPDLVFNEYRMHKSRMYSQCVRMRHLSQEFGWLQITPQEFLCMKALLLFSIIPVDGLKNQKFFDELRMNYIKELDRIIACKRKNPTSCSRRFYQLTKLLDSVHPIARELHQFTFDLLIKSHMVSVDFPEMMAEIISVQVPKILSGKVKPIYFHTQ
Test: AR Binding Assay (whole cell, MDA-MB-453, competition with [3H]-DHT)
Conditions: MDA-MB-453 cells, competition with 2 nM [3H]-DHT, Cheng-Prusoff
With a cut-off of 200 nM, any Ki strictly below it is called fulfilled; any Ki meeting it or above is called not fulfilled.

- N#Cc1ccc(N2C[C@@H]3[C@@H]([C@@H]4C=C[C@H]3O4)S2(=O)=O)cc1C(F)(F)F (racemic): fulfilled
- C[C@@]12C=C[C@@H](O1)[C@@H]1CN(c3ccc(C#N)c(C(F)(F)F)c3)S(=O)(=O)[C@@H]12 (racemic) [Example 21ii]: fulfilled
- N#Cc1ccc(N2C[C@H]3[C@H]([C@H]4O[C@@H]3C[C@H]4F)S2(=O)=O)cc1C(F)(F)F: fulfilled
- C[C@]12[C@H](CN(c3ccc(C#N)c(C(F)(F)F)c3)S1(=O)=O)[C@@H]1C=C[C@H]2O1: not fulfilled
- C[C@]12C=C[C@H](O1)[C@@H]1[C@H]2CN(c2ccc(C#N)c(C(F)(F)F)c2)S1(=O)=O (racemic) [Example 21i]: fulfilled
- N#Cc1ccc(N2C[C@H]3[C@@H]4O[C@@H](C[C@H]4O)[C@H]3S2(=O)=O)cc1C(F)(F)F (racemic) [Example 10iii]: not fulfilled
- N#Cc1ccc(N2C[C@H]3[C@H]4O[C@H]([C@@H]5O[C@@H]54)[C@H]3S2(=O)=O)cc1C(F)(F)F: fulfilled
- C[C@]12CC[C@](C)(O1)[C@@H]1[C@H]2CN(c2ccc(C#N)c(C(F)(F)F)c2)S1(=O)=O (racemic): not fulfilled
